These entries and their values trace back to PubChem BioAssay AID1745844.

System: rodent lifetime carcinogenesis bioassay, tumor incidence TD50
ASSAY_PROCEDURE: carcinogenic potency in animals, long-term in vivo studies, CPDB compilation (AID 1745844)
REPORTED_CONDITIONS: mouse; strain B6C3F1; females; by gavage; site: lung; lesion: alveolar/bronchiolar adenoma + alveolar/bronchiolar carcinoma; dosed 105 weeks; study length 105 weeks
MEASURE_NAME: TD50 (mg/kg/day)
One number for each entry, in mg/kg/day.

Data point: C=C1C/C(=C/C)C(=O)O[C@@H]2CCN3CC=C(COC(=O)[C@@]1(O)CO)[C@H]23 ; TD50 = 1.99

###

System: rodent lifetime carcinogenesis bioassay, tumor incidence TD50
ASSAY_PROCEDURE: carcinogenic potency in animals, long-term in vivo studies, CPDB compilation (AID 1745844)
REPORTED_CONDITIONS: mouse; strain C57BL/6JfC3Hf/Nctr x BALB/cStCrlfC3Hf/Nctr inter se; females; in drinking water; site: Harderian gland; lesion: adenoma; dosed 143 weeks; study length 143 weeks
MEASURE_NAME: TD50

Per the reported rodent lifetime carcinogenesis bioassay, tumor incidence TD50 data, Nc1ccc(-c2ccc(N)cc2)cc1 has TD50 of 41.1 mg/kg/day

###

Test system: rodent lifetime carcinogenesis bioassay, tumor incidence TD50
ASSAY_PROCEDURE: carcinogenic potency in animals, long-term in vivo studies, CPDB compilation (AID 1745844)
REPORTED_CONDITIONS: mouse; strain Charles River CD1; males; in feed; site: lung; lesion: bronchiolar adenocarcinoma; dosed 104 weeks; study length 104 weeks
Active and inactive are the calls of the source. How the calls were made is not given here.
MEASURE_NAME: TD50

Data point: CCN(Cc1cccc(S(=O)(=O)O)c1)c1ccc(C(=C2C=CC(=[N+](CC)Cc3cccc(S(=O)(=O)O)c3)C=C2)c2ccccc2S(=O)(=O)[O-])cc1 ; TD50 = 343000 mg/kg/day (inactive)

###

Field: TD50. Provide a value for each of the compounds that follow.
Test system: rodent lifetime carcinogenesis bioassay, tumor incidence TD50
ASSAY_PROCEDURE: carcinogenic potency in animals, long-term in vivo studies, CPDB compilation (AID 1745844)
REPORTED_CONDITIONS: rat; strain Fischer 344; males; by gavage; site: any site (literature study); lesion: several types; types named in the paper; dosed 94 weeks; study length 104 weeks
Numbers only, in mg/kg/day.

SMILES_STRING | UNIT_ANNOTATION | TD50
CC(C)=CCl | mg/kg/day | 10.2

Query compound follows.
Per the reported rodent lifetime carcinogenesis bioassay, tumor incidence TD50 data, ClCC(Cl)CCl has TD50 of 1.36

###

Test system: rodent lifetime carcinogenesis bioassay, tumor incidence TD50
ASSAY_PROCEDURE: carcinogenic potency in animals, long-term in vivo studies, CPDB compilation (AID 1745844)
REPORTED_CONDITIONS: rat; strain Fischer 344; males; by gavage; site: liver; lesion: hepatocellular adenoma; dosed 94 weeks; study length 104 weeks
MEASURE_NAME: TD50
Answer with the number, then the unit.

Data point: ClCC(Cl)CCl ; TD50 = 31.7 mg/kg/day

###

Field: TD50. Provide a value for each of the compounds that follow.
System: rodent lifetime carcinogenesis bioassay, tumor incidence TD50
ASSAY_PROCEDURE: carcinogenic potency in animals, long-term in vivo studies, CPDB compilation (AID 1745844)
REPORTED_CONDITIONS: rat; strain Fischer 344; males; by gavage; site: kidney; lesion: tubular-cell adenoma + tubular-cell adenocarcinoma; dosed 103 weeks; study length 105 weeks

SMILES_STRING | EXPERIMENTAL_SYSTEM | TD50
CC1=CC(=O)CC(C)(C)C1 | rodent lifetime carcinogenesis bioassay, tumor incidence TD50 | 1210 mg/kg/day

Query compound follows.
Data point: COc1c2occc2cc2ccc(=O)oc12 ; TD50 = 32.4 mg/kg/day

###

Field: TD50. Provide a value for each of the compounds that follow.
Tested on: rodent lifetime carcinogenesis bioassay, tumor incidence TD50
ASSAY_PROCEDURE: carcinogenic potency in animals, long-term in vivo studies, CPDB compilation (AID 1745844)
REPORTED_CONDITIONS: mouse; strain B6C3F1; males; in feed; site: liver; lesion: hepatocellular adenoma + hepatocellular carcinoma + neoplastic nodule; dosed 78 weeks; study length 104 weeks
Answers are plain numbers, in mg/kg/day.

SMILES_STRING | UNIT_ANNOTATION | RECORDED_MEASUREMENT
NC(=O)c1cnccn1 | mg/kg/day | 5180

Query compound follows.
Data point: CCC(Br)(CC)C(=O)NC(N)=O ; TD50 = 1580

###

System: rodent lifetime carcinogenesis bioassay, tumor incidence TD50
ASSAY_PROCEDURE: carcinogenic potency in animals, long-term in vivo studies, CPDB compilation (AID 1745844)
REPORTED_CONDITIONS: mouse; strain CFLP; females; in feed; site: liver; lesion: hepatocellular tumor; dosed 78 weeks; study length 78 weeks
Active and inactive are the calls of the source. The rule behind the calls is not given here.
Field: TD50. Provide a value for each of the compounds that follow.

Sample answers from the record:
COMPOUND | EXPERIMENTAL_SYSTEM | RECORDED_MEASUREMENT
C#C[C@]1(O)CC[C@H]2[C@@H]3CCc4cc(OC)ccc4[C@H]3CC[C@@]21C | rodent lifetime carcinogenesis bioassay, tumor incidence TD50 | 6.27 mg/kg/day (inactive)
C#C[C@]1(O)CC[C@H]2[C@@H]3CCc4cc(OC)ccc4[C@H]3CC[C@@]21C (tested in a mixture with another compound) | rodent lifetime carcinogenesis bioassay, tumor incidence TD50 | 143 mg/kg/day (inactive)

Query compound follows.
Data point: C#C[C@]1(O)CC[C@H]2[C@@H]3CCC4=C(CCC(=O)C4)[C@H]3CC[C@@]21C ; TD50 = 49.1 mg/kg/day (inactive)

###

Tested on: rodent lifetime carcinogenesis bioassay, tumor incidence TD50
ASSAY_PROCEDURE: carcinogenic potency in animals, long-term in vivo studies, CPDB compilation (AID 1745844)
REPORTED_CONDITIONS: mouse; strain B6C3F1; males; i.p.; site: all sites; lesion: lymphoma; dosed 52 weeks; study length 78 weeks
Calls of active or inactive are those of the source. The rule behind the calls is not given here.
MEASURE_NAME: TD50

Data point: CS(=O)(=O)OCCCNCCCOS(C)(=O)=O ; TD50 = 37.7 mg/kg/day (inactive)

###

Tested on: rodent lifetime carcinogenesis bioassay, tumor incidence TD50
ASSAY_PROCEDURE: carcinogenic potency in animals, long-term in vivo studies, CPDB compilation (AID 1745844)
REPORTED_CONDITIONS: mouse; strain B6C3F1; males; in feed; site: stomach; lesion: papilloma; dosed 78 weeks; study length 78 weeks
MEASURE_NAME: TD50

Per the reported rodent lifetime carcinogenesis bioassay, tumor incidence TD50 data, O=C(O)c1cc(Oc2ccc(C(F)(F)F)cc2Cl)ccc1[N+](=O)[O-] has TD50 of 2050 mg/kg/day

###

Tested on: rodent lifetime carcinogenesis bioassay, tumor incidence TD50
ASSAY_PROCEDURE: carcinogenic potency in animals, long-term in vivo studies, CPDB compilation (AID 1745844)
REPORTED_CONDITIONS: mouse; strain B6C3F1; females; in feed; site: thyroid gland; lesion: follicular-cell adenoma + follicular-cell carcinoma; dosed 78 weeks; study length 96 weeks
MEASURE_NAME: TD50

Per the reported rodent lifetime carcinogenesis bioassay, tumor incidence TD50 data, COc1ccc(N)cc1N has TD50 of 1060 mg/kg/day

###

Test system: rodent lifetime carcinogenesis bioassay, tumor incidence TD50
ASSAY_PROCEDURE: carcinogenic potency in animals, long-term in vivo studies, CPDB compilation (AID 1745844)
REPORTED_CONDITIONS: monkey; strain Cynomolgus [Macaca fascicularis]; both sexes; in feed; site: breast; lesion: carcinoma; dosed 258 weeks; study length 1513 weeks
MEASURE_NAME: TD50 (mg/kg/day)
Answers are plain numbers, in mg/kg/day.

Data point: CC(=O)Nc1ccc2c(c1)Cc1cc(NC(C)=O)ccc1-2 ; TD50 = 307

###

Test system: rodent lifetime carcinogenesis bioassay, tumor incidence TD50
ASSAY_PROCEDURE: carcinogenic potency in animals, long-term in vivo studies, CPDB compilation (AID 1745844)
REPORTED_CONDITIONS: mouse; strain B6C3F1; males; by gavage; site: any site (literature study); lesion: several types; types named in the paper; dosed 53 weeks; study length 93 weeks
MEASURE_NAME: TD50

Data point: COc1ccc(N)c(C)c1 ; TD50 = 72.2 mg/kg/day

###

Field: TD50. Provide a value for each of the molecules that follow.
Tested on: rodent lifetime carcinogenesis bioassay, tumor incidence TD50
ASSAY_PROCEDURE: carcinogenic potency in animals, long-term in vivo studies, CPDB compilation (AID 1745844)
REPORTED_CONDITIONS: rat; strain Sprague-Dawley; females; by gavage; site: oral cavity; lesion: carcinoma; dosed 104 weeks; study length 123 weeks
Give bare numbers, in mg/kg/day.

SMILES_STRING | EXPERIMENTAL_SYSTEM | TD50, mg/kg/day
Cc1cccc(C)c1 | rodent lifetime carcinogenesis bioassay, tumor incidence TD50 | 5860

Query molecule follows.
Per the reported rodent lifetime carcinogenesis bioassay, tumor incidence TD50 data, CCc1ccccc1 has TD50 of 8890
